# target of assay: UniProtKB P29275
# Sequence (P29275 whole entry): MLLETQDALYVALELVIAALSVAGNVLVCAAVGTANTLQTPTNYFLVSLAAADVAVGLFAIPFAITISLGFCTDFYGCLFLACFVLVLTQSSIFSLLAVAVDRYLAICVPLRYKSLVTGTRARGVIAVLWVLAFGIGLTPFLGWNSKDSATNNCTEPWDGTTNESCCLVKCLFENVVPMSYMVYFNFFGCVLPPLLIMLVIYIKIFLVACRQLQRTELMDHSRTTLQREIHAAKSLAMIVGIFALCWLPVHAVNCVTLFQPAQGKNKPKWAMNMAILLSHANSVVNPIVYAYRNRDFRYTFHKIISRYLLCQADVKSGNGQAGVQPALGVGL
# assay: Radioligand competitive binding, ADENOSINE A2B (HEK293), [3H]-DPCPX (Table 8)
# Design: purchased Receptor Biology; host or cells: HEK 293
# condition set: [3H]-DPCPX 30-40 nM
# Ki per entry
reported endpoint: Ki (nM)

>>> print(df.to_string())
                                   molecule  endpoint_value
0  CCCn1c(=O)c2[nH]c(C34CCC(O[C@@H](C)C(=O)O)(CC3)CC4)nc2n(CCC)c1=O            45.1
1  CCCn1c(=O)c2nc(C34CCC(CCCC(=O)O)(CC3)CC4)[nH]c2n(CCC)c1=O             127
2  CCCn1c(=O)c2[nH]c(C3C4CC5C(C4CCCN(C)C)C53)nc2n(CCC)c1=O (stereo not shown)            14.6
3  CCCn1c(=O)c2[nH]c(C34CCC(CCc5nnn[nH]5)(CC3)CC4)nc2n(CCC)c1=O             160
